All figures here come from ChEMBL document CHEMBL4364242.

# Test system: NCI-H1299
# TEST_METHOD_NOTES: Effect on 235Gar-OVA expression in human H1299 cells at 10 uM incubated for 40 hrs by western blot analysis
# Assay type: functional
# Set-up: unit not given here
# key: entry, value: Activity

CHEMICAL_STRING: CC[n+]1cccc2cc(/C=N/NC(=O)c3cccc(C(=O)N/N=C/c4ccc5c(ccc[n+]5CC)c4)n3)ccc21.[I-].[I-]
TEST_SYSTEM: NCI-H1299
Activity: 86
//
CHEMICAL_STRING: C[n+]1ccc(/C=N/NC(=O)c2cc(C(=O)N/N=C/c3cc[n+](C)cc3)ncn2)cc1.[I-].[I-]
TEST_SYSTEM: NCI-H1299
Activity: 80
//
CHEMICAL_STRING: C[n+]1ccc(/C=N/NC(=O)c2cccc(C(=O)N/N=C/c3cc[n+](C)c4ccccc34)n2)c2ccccc21.[I-].[I-]
TEST_SYSTEM: NCI-H1299
Activity: 162
//
CHEMICAL_STRING: O=C(N/N=C/c1ccc2c(ccc[n+]2Cc2ccccc2)c1)c1cc(C(=O)N/N=C/c2ccc3c(ccc[n+]3Cc3ccccc3)c2)ncn1.[Br-].[Br-]
TEST_SYSTEM: NCI-H1299
Activity: 139
//
CHEMICAL_STRING: CC[n+]1cccc2cc(/C=N/NC(=O)c3cc(C(=O)N/N=C/c4ccc5c(ccc[n+]5CC)c4)ncn3)ccc21.[I-].[I-]
TEST_SYSTEM: NCI-H1299
Activity: 48
//
CHEMICAL_STRING: C[n+]1ccc(/C=N/NC(=O)c2ccc3ccc4ccc(C(=O)N/N=C/c5cc[n+](C)c6ccccc56)nc4c3n2)c2ccccc21.[I-].[I-]
TEST_SYSTEM: NCI-H1299
Activity: 189
//
CHEMICAL_STRING: C[n+]1ccc(/C=N/NC(=O)c2cc(C(=O)N/N=C/c3cc[n+](C)c4ccccc34)ncn2)c2ccccc21.[I-].[I-]
TEST_SYSTEM: NCI-H1299
Activity: 89
//
CHEMICAL_STRING: C[n+]1ccc(/C=N/NC(=O)c2ccc3ccc4ccc(C(=O)N/N=C/c5cc[n+](C)cc5)nc4c3n2)cc1.[I-].[I-]
TEST_SYSTEM: NCI-H1299
Activity: 78
//
CHEMICAL_STRING: O=C(N/N=C/c1cc[n+](Cc2ccccc2)c2ccccc12)c1cccc(C(=O)N/N=C/c2cc[n+](Cc3ccccc3)c3ccccc23)n1.[Br-].[Br-]
TEST_SYSTEM: NCI-H1299
Activity: 134
//
CHEMICAL_STRING: C[n+]1ccc(/C=N/NC(=O)c2cccc(C(=O)N/N=C/c3cc[n+](C)cc3)n2)cc1.[I-].[I-]
TEST_SYSTEM: NCI-H1299
Activity: 106
//
CHEMICAL_STRING: CC[n+]1cccc2cc(/C=N/NC(=O)c3ccc4ccc(C(=O)N/N=C/c5ccc6c(ccc[n+]6CC)c5)nc4n3)ccc21.[I-].[I-]
TEST_SYSTEM: NCI-H1299
Activity: 82
//
CHEMICAL_STRING: C[n+]1ccc(/C=N/NC(=O)c2ccc3ccc(C(=O)N/N=C/c4cc[n+](C)c5ccccc45)nc3n2)c2ccccc21.[I-].[I-]
TEST_SYSTEM: NCI-H1299
Activity: 95
//
CHEMICAL_STRING: O=C(N/N=C/c1ccc2c(ccc[n+]2Cc2ccccc2)c1)c1ccc2ccc3ccc(C(=O)N/N=C/c4ccc5c(ccc[n+]5Cc5ccccc5)c4)nc3c2n1.[Br-].[Br-]
TEST_SYSTEM: NCI-H1299
Activity: 111
//
CHEMICAL_STRING: O=C(N/N=C/c1cc[n+](Cc2ccccc2)c2ccccc12)c1cc(C(=O)N/N=C/c2cc[n+](Cc3ccccc3)c3ccccc23)ncn1.[Br-].[Br-]
TEST_SYSTEM: NCI-H1299
Activity: 108
//
CHEMICAL_STRING: O=C(N/N=C/c1ccc2c(ccc[n+]2Cc2ccccc2)c1)c1cccc(C(=O)N/N=C/c2ccc3c(ccc[n+]3Cc3ccccc3)c2)n1.[Br-].[Br-]
TEST_SYSTEM: NCI-H1299
Activity: 58
//
CHEMICAL_STRING: CC[n+]1cccc2cc(/C=N/NC(=O)c3ccc4ccc5ccc(C(=O)N/N=C/c6ccc7c(ccc[n+]7CC)c6)nc5c4n3)ccc21.[I-].[I-]
TEST_SYSTEM: NCI-H1299
Activity: 80
//
CHEMICAL_STRING: O=C(N/N=C/c1cc[n+](Cc2ccccc2)c2ccccc12)c1ccc2ccc(C(=O)N/N=C/c3cc[n+](Cc4ccccc4)c4ccccc34)nc2n1.[Br-].[Br-]
TEST_SYSTEM: NCI-H1299
Activity: 106
//
CHEMICAL_STRING: O=C(N/N=C/c1ccc2c(ccc[n+]2Cc2ccccc2)c1)c1ccc2ccc(C(=O)N/N=C/c3ccc4c(ccc[n+]4Cc4ccccc4)c3)nc2n1.[Br-].[Br-]
TEST_SYSTEM: NCI-H1299
Activity: 104
//
CHEMICAL_STRING: C[n+]1ccc(/C=N/NC(=O)c2ccc3ccc(C(=O)N/N=C/c4cc[n+](C)cc4)nc3n2)cc1.[I-].[I-]
TEST_SYSTEM: NCI-H1299
Activity: 112
//
CHEMICAL_STRING: O=C(N/N=C/c1cc[n+](Cc2ccccc2)c2ccccc12)c1ccc2ccc3ccc(C(=O)N/N=C/c4cc[n+](Cc5ccccc5)c5ccccc45)nc3c2n1.[Br-].[Br-]
TEST_SYSTEM: NCI-H1299
Activity: 96
